# key: entry, value: log10 of Affinity constant
# TGT: Beta-1 adrenergic receptor (Cavia porcellus)
Heads up: the numbers are on a log10 scale; they represent Affinity constant in µM.

Answered cases to consult:
CC(C)NC[C@H](O)COc1ccccc1OCCCOc1ccccc1OC[C@@H](O)CNC(C)C: -1.46
CC(C)NC[C@H](O)COc1ccc(OCCCCCCCCCCCCOc2ccc(OC[C@@H](O)CNC(C)C)cc2)cc1: -1.00
CC(C)NC[C@H](O)COc1ccc(OCCOCCOc2ccc(OC[C@@H](O)CNC(C)C)cc2)cc1: -2.00
CC(C)NC[C@H](O)COc1ccc(OCCOCCOCCOc2ccc(OC[C@@H](O)CNC(C)C)cc2)cc1: -2.00
CC(C)NC[C@@H](O)COc1ccccc1OCCCCCCCCCCOc1ccccc1OC[C@@H](O)CNC(C)C: -2.40
CC(C)NC[C@@H](O)COc1ccccc1OCCCCCCOc1ccccc1OC[C@@H](O)CNC(C)C: -2.52
CC(C)NC[C@H](O)COc1cccc(OCCOCCOc2cccc(OC[C@@H](O)CNC(C)C)c2)c1: 0.00
CC(C)NC[C@H](O)COc1ccc(OCCCCCCCCCCCCCCOc2ccc(OC[C@@H](O)CNC(C)C)cc2)cc1: 0.34
CC(C)NC[C@@H](O)COc1ccccc1OCCCCCCCCOc1ccccc1OC[C@@H](O)CNC(C)C: -2.15
CC(C)NC[C@@H](O)COc1ccccc1OCCCCCCCCCCCCCCCCCCCCOc1ccccc1OC[C@@H](O)CNC(C)C: 0.18

Observed log10 of Affinity constant on Beta-1 adrenergic receptor (Cavia porcellus) for CC(C)NC[C@H](O)COc1ccccc1OCCOCCOc1ccccc1OC[C@@H](O)CNC(C)C , please.
-0.82

Quick one: CC(C)NC[C@@H](O)COc1ccccc1OCCOCCOCCOc1ccccc1OC[C@@H](O)CNC(C)C
-1.22

---

# TGT: Beta-1 adrenergic receptor (Cavia porcellus)
This section presents compounds with their documented Affinity constant values.
Numeric only. Scale: µM

Field: example entries. Status: answers known.
CC(C)NC[C@@H](O)COc1ccccc1OCCCCCCCCCCCCOc1ccccc1OC[C@@H](O)CNC(C)C: 1
CC(C)NC[C@H](O)COc1ccc(OCCCOc2ccc(OC[C@@H](O)CNC(C)C)cc2)cc1: 0.2
CC(C)NC[C@H](O)COc1ccc(OCCCCCCOc2ccc(OC[C@@H](O)CNC(C)C)cc2)cc1: 0.01

Requested read-out Affinity constant, target or system Beta-1 adrenergic receptor (Cavia porcellus), entry CC(C)NC[C@H](O)COc1ccccc1OCCOCCOCCOCCOc1ccccc1OC[C@@H](O)CNC(C)C
0.055

# repeat for CC(C)NC[C@@H](O)COc1ccccc1OCCCCCCCCCCCCCCOc1ccccc1OC[C@@H](O)CNC(C)C
0.2

Proceed to CC(C)NC[C@H](O)COc1ccccc1OCC(O)COc1ccccc1OC[C@@H](O)CNC(C)C
0.65

---

# TGT: Beta-2 adrenergic receptor (Cavia porcellus) (UniProt Q8K4Z4)
# Sequence (Q8K4Z4 whole entry, looked up): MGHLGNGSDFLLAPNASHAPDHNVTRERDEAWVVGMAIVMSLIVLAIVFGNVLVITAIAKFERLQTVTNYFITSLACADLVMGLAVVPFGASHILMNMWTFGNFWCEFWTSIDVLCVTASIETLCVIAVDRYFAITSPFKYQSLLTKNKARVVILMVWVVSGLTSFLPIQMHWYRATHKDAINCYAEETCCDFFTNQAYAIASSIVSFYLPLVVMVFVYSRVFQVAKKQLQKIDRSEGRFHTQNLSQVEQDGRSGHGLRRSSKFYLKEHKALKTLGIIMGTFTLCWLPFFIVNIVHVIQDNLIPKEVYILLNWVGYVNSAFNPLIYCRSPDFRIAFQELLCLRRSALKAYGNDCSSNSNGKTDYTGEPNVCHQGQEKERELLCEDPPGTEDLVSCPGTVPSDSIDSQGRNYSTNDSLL
The entries below come with measured Affinity constant values attached.

Solved cases (5 shown):
CC(C)NC[C@H](O)COc1ccc(OCCCCCCCCOc2ccc(OC[C@@H](O)CNC(C)C)cc2)cc1: 1.5 µM
CC(C)NC[C@H](O)COc1cccc(OCCOCCOc2cccc(OC[C@@H](O)CNC(C)C)c2)c1: 0.031 µM
CC(C)NC[C@@H](O)COc1ccccc1OCCOCCOCCOc1ccccc1OC[C@@H](O)CNC(C)C: 0.00085 µM
CC(C)NC[C@H](O)COc1ccc(OCCOCCOCCOc2ccc(OC[C@@H](O)CNC(C)C)cc2)cc1: 0.03 µM
CC(C)NC[C@H](O)COc1ccccc1OCC(O)COc1ccccc1OC[C@@H](O)CNC(C)C: 4.4e-05 µM

Bench note: what Affinity constant did CC(C)NC[C@H](O)COc1ccc(OCCCOc2ccc(OC[C@@H](O)CNC(C)C)cc2)cc1 show?
0.24 µM

Repeat for the following compound: CC(C)NC[C@@H](O)COc1ccccc1OCCCCCCCCCCCCCCCCCCCCOc1ccccc1OC[C@@H](O)CNC(C)C
> 10 µM

Also check CC(C)NC[C@H](O)COc1ccc(OCCCCCCOc2ccc(OC[C@@H](O)CNC(C)C)cc2)cc1
> 10 µM

What would you report for CC(C)NC[C@H](O)COc1ccccc1OCCOCCOCCOCCOc1ccccc1OC[C@@H](O)CNC(C)C ?
4e-05 µM

Check CC(C)NC[C@@H](O)COc1ccccc1OCCCCCCOc1ccccc1OC[C@@H](O)CNC(C)C too.
0.4 µM

Also check CC(C)NC[C@H](O)COc1ccccc1OCCOCCOc1ccccc1OC[C@@H](O)CNC(C)C
0.015 µM

Entry CC(C)NC[C@H](O)COc1ccc(OCCCCCCCCCCCCCCCCCCCCOc2ccc(OC[C@@H](O)CNC(C)C)cc2)cc1 please
0.42 µM

Entry to check: CC(C)NC[C@@H](O)COc1ccccc1OCCCCCCCCCCOc1ccccc1OC[C@@H](O)CNC(C)C
0.17 µM

Field entry: CC(C)NC[C@@H](O)COc1ccccc1OCCCCCCCCCCCCOc1ccccc1OC[C@@H](O)CNC(C)C
0.015 µM

Also check CC(C)NC[C@H](O)COc1ccc(OCCCCCCCCCCCCCCOc2ccc(OC[C@@H](O)CNC(C)C)cc2)cc1
> 10 µM

Record: CC(C)NC[C@H](O)COc1ccc(OCCOCCOCCOCCOc2ccc(OC[C@@H](O)CNC(C)C)cc2)cc1
0.23 µM

Another: CC(C)NC[C@H](O)COc1ccc(OCCCCCCCCCCCCOc2ccc(OC[C@@H](O)CNC(C)C)cc2)cc1
10 µM

---

The compounds below have reported log10(Affinity constant) for Beta-2 adrenergic receptor (Cavia porcellus).
// do not treat as linear: log10 of Affinity constant, unit µM

Consider the worked cases shown below.
CC(C)NC[C@H](O)COc1cccc(OCCCOc2cccc(OC[C@@H](O)CNC(C)C)c2)c1: -2.15
CC(C)NC[C@@H](O)COc1ccccc1OCCCCCCCCCCCCCCOc1ccccc1OC[C@@H](O)CNC(C)C: 0.00
CC(C)NC[C@H](O)COc1ccc(OCCOCCOc2ccc(OC[C@@H](O)CNC(C)C)cc2)cc1: -0.44

Given CC(C)NC[C@H](O)COc1ccccc1OCCCOc1ccccc1OC[C@@H](O)CNC(C)C , state its recorded log10(Affinity constant).
-3.19

// same read-out, input: CC(C)NC[C@@H](O)COc1ccccc1OCCCCCCCCOc1ccccc1OC[C@@H](O)CNC(C)C
-1.34

---

# TGT: UniProt P18090
# Sequence (P18090 whole entry, looked up): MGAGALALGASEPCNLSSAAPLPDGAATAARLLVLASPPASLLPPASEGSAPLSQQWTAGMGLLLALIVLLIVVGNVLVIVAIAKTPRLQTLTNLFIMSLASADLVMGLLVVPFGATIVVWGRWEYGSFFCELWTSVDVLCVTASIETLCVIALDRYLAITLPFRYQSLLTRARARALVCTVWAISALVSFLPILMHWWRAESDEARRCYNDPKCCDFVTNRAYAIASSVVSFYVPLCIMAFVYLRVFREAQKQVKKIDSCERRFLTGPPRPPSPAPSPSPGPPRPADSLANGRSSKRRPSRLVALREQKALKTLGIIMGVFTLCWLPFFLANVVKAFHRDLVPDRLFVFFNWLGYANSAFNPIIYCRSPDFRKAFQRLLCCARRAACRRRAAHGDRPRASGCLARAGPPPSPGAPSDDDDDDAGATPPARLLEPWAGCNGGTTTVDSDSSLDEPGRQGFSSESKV
# TEST DESCRIPTION: Beta-1 adrenergic receptor blockade measured as inhibition of tachycardia caused by isoprenaline in anesthetized rats when administered intravenously
# Assay type: functional
Quick rule for you: ED50 under 0.3 mg/kg gets yes, anything else gets no.

These recorded examples may help you get a feel for the data.
CC(C)NC[C@@H](O)COc1ccccc1OCCOCCOCCOc1ccccc1OC[C@@H](O)CNC(C)C: yes
CC(C)NC[C@@H](O)COc1ccccc1OCCCCCCCCCCOc1ccccc1OC[C@@H](O)CNC(C)C: no
CC(C)NC[C@H](O)COc1ccc(OCCOCCOCCOCCOc2ccc(OC[C@@H](O)CNC(C)C)cc2)cc1: yes
CC(C)NC[C@H](O)COc1ccccc1OCCOCCOCCOCCOc1ccccc1OC[C@@H](O)CNC(C)C: yes

# strict comparison: is reported ED50 < 0.3 mg/kg? input = CC(C)NC[C@H](O)COc1ccc(OCCOCCOCCOc2ccc(OC[C@@H](O)CNC(C)C)cc2)cc1
yes

---

# TGT: Beta-1 adrenergic receptor (Cavia porcellus) (UniProt B0FL73)
# Sequence (B0FL73 1-467): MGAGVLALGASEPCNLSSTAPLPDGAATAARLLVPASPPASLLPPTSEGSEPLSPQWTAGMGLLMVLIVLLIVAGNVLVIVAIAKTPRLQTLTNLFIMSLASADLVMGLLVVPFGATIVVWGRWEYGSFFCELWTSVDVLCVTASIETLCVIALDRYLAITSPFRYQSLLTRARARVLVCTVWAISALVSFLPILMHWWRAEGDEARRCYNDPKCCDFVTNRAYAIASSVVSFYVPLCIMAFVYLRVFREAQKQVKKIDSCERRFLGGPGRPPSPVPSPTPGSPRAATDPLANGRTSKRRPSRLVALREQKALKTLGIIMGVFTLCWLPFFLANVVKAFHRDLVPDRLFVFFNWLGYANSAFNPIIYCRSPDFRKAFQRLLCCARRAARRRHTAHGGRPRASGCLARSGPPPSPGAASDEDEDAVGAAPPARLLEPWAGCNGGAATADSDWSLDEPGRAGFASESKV
Answer f if Affinity constant is under 0.7 µM, and t if it is 0.7 µM or more.

Consider the following illustrative entries.
CC(C)NC[C@H](O)COc1ccc(OCCCCCCCCCCOc2ccc(OC[C@@H](O)CNC(C)C)cc2)cc1: f
CC(C)NC[C@H](O)COc1ccc(OCCCCCCCCCCCCCCCCCCCCOc2ccc(OC[C@@H](O)CNC(C)C)cc2)cc1: t
CC(C)NC[C@H](O)COc1ccc(OCCCCCCCCOc2ccc(OC[C@@H](O)CNC(C)C)cc2)cc1: f

Next:
Determine whether measured Affinity constant meets or exceeds 0.7 µM for CC(C)NC[C@H](O)COc1ccc(OCCOCCOCCOCCOc2ccc(OC[C@@H](O)CNC(C)C)cc2)cc1
f

The reported numbers originate from ChEMBL document CHEMBL1122437.
